Listed compounds paired with reported IC50
- assay system: STING WT: His-TVMV-S-hSTING(155-341)-H232R (Homo sapiens, UniProt Q86WV6, H232R)
- Construct: STING WT: His-TVMV-S-hSTING(155-341)-H232R
- Sequence (Q86WV6 with tags, fused parts or gaps H232R): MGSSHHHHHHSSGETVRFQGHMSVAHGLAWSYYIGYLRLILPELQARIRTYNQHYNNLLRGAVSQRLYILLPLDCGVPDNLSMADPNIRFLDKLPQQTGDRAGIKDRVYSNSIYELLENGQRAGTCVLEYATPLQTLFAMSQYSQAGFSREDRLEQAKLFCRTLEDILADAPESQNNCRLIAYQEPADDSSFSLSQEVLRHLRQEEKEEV
- procedure details: STING HTRF binding assay (time resolved FRET competition), STING WT
- measurement context: 20 nM His-tagged STING WT cytoplasmic domain, 200 nM fluorescein-labeled cGAMP analog probe, one hour; read-out: HTRF Binding Assays IC50 (μM) WT

| compound | assay system | units label | result comparator | IC50 |
| --- | --- | --- | --- | --- |
| Nc1ncnc2c1ncn2[C@@H]1C[C@@H]2COP(=O)(S)O[C@H]3[C@@H](O)[C@H](n4cnc5c(=O)n6cc[nH]c6nc54)O[C@@H]3COP(=O)(S)OC[C@H]21 (single isomer, unassigned) [Example 5-2] | STING WT: His-TVMV-S-hSTING(155-341)-H232R (Homo sapiens, UniProt Q86WV6, H232R) | µM | > | 100 |
| Nc1ncnc2c1ncn2[C@@H]1C[C@@H]2COP(=O)(O)O[C@@H]3[C@H](O)[C@@H](COP(=O)(S)OC[C@H]21)O[C@H]3n1cnc2c(=O)n3ccnc3[nH]c21 (single isomer, unassigned) [Example 4-1] | STING WT: His-TVMV-S-hSTING(155-341)-H232R (Homo sapiens, UniProt Q86WV6, H232R) | µM | = | 11.1 |
| Nc1ncnc2c1ncn2[C@@H]1O[C@@H]2COP(=O)(S)OC[C@@H]3[C@@H](COP(=O)(S)O[C@H]2[C@H]1F)C[C@H]3n1cnc2c1ncn1ccnc21 (single isomer, unassigned) [Example 3-2] | STING WT: His-TVMV-S-hSTING(155-341)-H232R (Homo sapiens, UniProt Q86WV6, H232R) | µM | = | 1.49 |
| NC(=O)c1cc([C@@H]2O[C@@H]3COP(=O)(S)OC[C@@H]4[C@@H](COP(=O)(S)O[C@@H]2[C@@H]3O)C[C@H]4n2cnc3c(N)ncnc32)ccn1 (single isomer, unassigned) [Example 20-2] | STING WT: His-TVMV-S-hSTING(155-341)-H232R (Homo sapiens, UniProt Q86WV6, H232R) | µM | > | 100 |
| Nc1ncnc2c1ncn2[C@@H]1C[C@@H]2COP(=O)(S)O[C@@H]3[C@H](F)[C@@H](COP(=O)(O)OC[C@H]21)O[C@H]3n1cnc2c(=O)n3ccnc3[nH]c21 (some centres unmarked) [Example 7] | STING WT: His-TVMV-S-hSTING(155-341)-H232R (Homo sapiens, UniProt Q86WV6, H232R) | µM | = | 0.12 |
